- experimental.target: NPR-B (Homo sapiens, UniProt P20594)
- Sequence (P20594 23-1047): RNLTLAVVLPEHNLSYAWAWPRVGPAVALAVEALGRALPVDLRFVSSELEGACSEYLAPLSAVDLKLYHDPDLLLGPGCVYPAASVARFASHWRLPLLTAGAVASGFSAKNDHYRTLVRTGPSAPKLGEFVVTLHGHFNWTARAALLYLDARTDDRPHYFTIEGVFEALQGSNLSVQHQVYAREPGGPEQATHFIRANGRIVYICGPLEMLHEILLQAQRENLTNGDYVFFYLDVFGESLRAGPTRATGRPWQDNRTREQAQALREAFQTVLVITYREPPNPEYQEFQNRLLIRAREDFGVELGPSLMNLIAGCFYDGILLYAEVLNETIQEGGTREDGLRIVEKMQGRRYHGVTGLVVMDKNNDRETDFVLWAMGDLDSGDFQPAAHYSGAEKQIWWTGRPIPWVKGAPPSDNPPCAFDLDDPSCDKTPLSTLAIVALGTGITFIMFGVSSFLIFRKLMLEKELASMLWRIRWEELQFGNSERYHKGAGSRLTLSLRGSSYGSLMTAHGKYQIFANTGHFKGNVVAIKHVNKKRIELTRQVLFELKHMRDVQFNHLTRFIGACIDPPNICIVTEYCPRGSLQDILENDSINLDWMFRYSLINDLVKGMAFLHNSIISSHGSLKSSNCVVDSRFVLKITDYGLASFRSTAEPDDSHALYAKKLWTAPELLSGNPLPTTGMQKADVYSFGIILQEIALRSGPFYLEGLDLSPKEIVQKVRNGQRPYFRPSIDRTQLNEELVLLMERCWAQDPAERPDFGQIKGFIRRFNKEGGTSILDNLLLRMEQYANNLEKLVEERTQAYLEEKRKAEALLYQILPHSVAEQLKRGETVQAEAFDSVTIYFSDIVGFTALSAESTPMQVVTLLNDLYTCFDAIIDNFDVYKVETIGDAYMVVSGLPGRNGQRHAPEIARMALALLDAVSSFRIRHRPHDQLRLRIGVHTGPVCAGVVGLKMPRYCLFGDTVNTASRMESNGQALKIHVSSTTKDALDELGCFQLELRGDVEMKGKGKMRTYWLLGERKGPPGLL
- test.description: Whole cell guanylyl cyclase (cGMP) assay, NPR-B
- Assay type: cell-based
- Set-up: expressed in transfected cells
- test.parameters: read-out: % Efficacy
Bridge positions count the residues as written; N and C are the ends. Ends that are not written are not given here.
Please respond with reported Emax for every item in the list.
Put your answer as a value accompanied by its unit after it.

Solved entries (count: 2):
primary.sequence	experimental.target	property.label	observed.measurement
EEEEEESGGGGSGGGKGANKQGLSKGCFGLKLDRIGSMSGLGC (disulfide 27-43) [C6(E6) [BC6]]	NPR-B (Homo sapiens, UniProt P20594)	Emax	88%
EEEEEESGGGGSGGGKGANQKGLSKGCFGLKLDRIGSMSGLGC (disulfide 27-43) [C7(E6) [BC7]]	NPR-B (Homo sapiens, UniProt P20594)	Emax	95%

Batch request: Emax for each of the following sequences.
1. EEEEEEPSSAAPQPNAPSTSAGLSKGCFGLKLDRIGSMSGLGC (disulfide 27-43) [C3(E6) [BC3]]
2. EEEEEESGGGGSGGGQGANQKGLSKGCFGLKLDRIGSMSGLGC (disulfide 27-43) [C10(E6) [BC10]]

67%
156%
